Ref: paper PMC10653547

- System: colistin-resistant E. coli clinical isolates
- methodNotes: Disk diffusion antimicrobial susceptibility testing (CLSI)
- Type: cell-based, Escherichia coli
- conditionParameters: EC-09

| compoundSmiles | Interpreted results of disk diffusion |
| --- | --- |
| NCC[C@H](O)C(=O)N[C@@H]1C[C@H](N)[C@@H](O[C@H]2O[C@H](CN)[C@@H](O)[C@H](O)[C@H]2O)[C@H](O)[C@H]1O[C@H]1O[C@H](CO)[C@@H](O)[C@H](N)[C@H]1O | S |
| C[C@H]1[C@H](NC(=O)/C(=N\OC(C)(C)C(=O)O)c2csc(N)n2)C(=O)N1S(=O)(=O)O | R |
| CO/N=C(\C(=O)N[C@@H]1C(=O)N2C(C(=O)O)=C(CSc3nc(=O)c(=O)[nH]n3C)CS[C@H]12)c1csc(N)n1 | R |

====

- System: colistin-resistant E. coli clinical isolates
- methodNotes: Disk diffusion antimicrobial susceptibility testing (CLSI)
- Assay type: cell-based, Escherichia coli
- conditionParameters: EC-07
metricName: Interpreted results of disk diffusion

# count of solved cases: 5
| compound | Interpreted results of disk diffusion |
| --- | --- |
| C[C@H]1[C@H](NC(=O)/C(=N\OC(C)(C)C(=O)O)c2csc(N)n2)C(=O)N1S(=O)(=O)O [ATM, aztreonam] | R |
| NCC[C@H](O)C(=O)N[C@@H]1C[C@H](N)[C@@H](O[C@H]2O[C@H](CN)[C@@H](O)[C@H](O)[C@H]2O)[C@H](O)[C@H]1O[C@H]1O[C@H](CO)[C@@H](O)[C@H](N)[C@H]1O [AK, amikacin] | S |
| C[C@@H](O)[C@H]1C(=O)N2C(C(=O)O)=C(S[C@@H]3CN[C@H](C(=O)Nc4cccc(C(=O)O)c4)C3)[C@H](C)[C@H]12 [ETP, ertapenem] | S |
| CO/N=C(\C(=O)N[C@@H]1C(=O)N2C(C(=O)O)=C(CSc3nc(=O)c(=O)[nH]n3C)CS[C@H]12)c1csc(N)n1 [CRO, ceftriaxone] | R |
| CNC(C)C1CCC(N)C(OC2C(N)CC(N)C(OC3OCC(C)(O)C(NC)C3O)C2O)O1 (stereo not drawn) [GM, gentamicin] | S |

## Input Which measured Interpreted results of disk diffusion value corresponds to CO[C@@]1(NC(=O)Cc2cccs2)C(=O)N2C(C(=O)O)=C(COC(N)=O)CS[C@@H]21 [FOX, cefoxitin] ?
## Output S

====

- System: colistin-resistant E. coli clinical isolates
- methodNotes: Disk diffusion antimicrobial susceptibility testing (CLSI)
- Assay type: cell-based, Escherichia coli
- conditionParameters: EC-01
metricName: Interpreted results of disk diffusion

# count of solved cases: 6
| molecule | metricName | val |
| --- | --- | --- |
| O=C(N[C@H](CO)[C@H](O)c1ccc([N+](=O)[O-])cc1)C(Cl)Cl [C, chloramphenicol] | Interpreted results of disk diffusion | R |
| CC(C)(O/N=C(\C(=O)N[C@@H]1C(=O)N2C(C(=O)[O-])=C(C[n+]3ccccc3)CS[C@H]12)c1csc(N)n1)C(=O)O [CAZ, ceftazidime] | Interpreted results of disk diffusion | R |
| C[C@@H](O)[C@H]1C(=O)N2C(C(=O)O)=C(S[C@@H]3CN[C@H](C(=O)Nc4cccc(C(=O)O)c4)C3)[C@H](C)[C@H]12 [ETP, ertapenem] | Interpreted results of disk diffusion | S |
| CO[C@@]1(NC(=O)Cc2cccs2)C(=O)N2C(C(=O)O)=C(COC(N)=O)CS[C@@H]21 [FOX, cefoxitin] | Interpreted results of disk diffusion | S |
| CO/N=C(\C(=O)N[C@@H]1C(=O)N2C(C(=O)[O-])=C(C[N+]3(C)CCCC3)CS[C@H]12)c1csc(N)n1 [FEP, cefepime] | Interpreted results of disk diffusion | R |
| NCC[C@H](O)C(=O)N[C@@H]1C[C@H](N)[C@@H](O[C@H]2O[C@H](CN)[C@@H](O)[C@H](O)[C@H]2O)[C@H](O)[C@H]1O[C@H]1O[C@H](CO)[C@@H](O)[C@H](N)[C@H]1O [AK, amikacin] | Interpreted results of disk diffusion | S |

## Input Which measured Interpreted results of disk diffusion value corresponds to C[C@@H]1O[C@@H]1P(=O)(O)O [FOS, fosfomycin] ?
## Output S

## Input Which measured Interpreted results of disk diffusion value corresponds to CO/N=C(\C(=O)N[C@@H]1C(=O)N2C(C(=O)O)=C(CSc3nc(=O)c(=O)[nH]n3C)CS[C@H]12)c1csc(N)n1 [CRO, ceftriaxone] ?
## Output R

## Input Which measured Interpreted results of disk diffusion value corresponds to C[C@H]1[C@H](NC(=O)/C(=N\OC(C)(C)C(=O)O)c2csc(N)n2)C(=O)N1S(=O)(=O)O [ATM, aztreonam] ?
## Output R

## Input Which measured Interpreted results of disk diffusion value corresponds to CNC(C)C1CCC(N)C(OC2C(N)CC(N)C(OC3OCC(C)(O)C(NC)C3O)C2O)O1 (stereo not shown) [GM, gentamicin] ?
## Output R
